# testSystem: GST tagged truncated human mutant G2019S LRRK2 (Homo sapiens (Human), UniProt Q5S007, G2019S)
# Sequence (Q5S007 970-2527 G2019S): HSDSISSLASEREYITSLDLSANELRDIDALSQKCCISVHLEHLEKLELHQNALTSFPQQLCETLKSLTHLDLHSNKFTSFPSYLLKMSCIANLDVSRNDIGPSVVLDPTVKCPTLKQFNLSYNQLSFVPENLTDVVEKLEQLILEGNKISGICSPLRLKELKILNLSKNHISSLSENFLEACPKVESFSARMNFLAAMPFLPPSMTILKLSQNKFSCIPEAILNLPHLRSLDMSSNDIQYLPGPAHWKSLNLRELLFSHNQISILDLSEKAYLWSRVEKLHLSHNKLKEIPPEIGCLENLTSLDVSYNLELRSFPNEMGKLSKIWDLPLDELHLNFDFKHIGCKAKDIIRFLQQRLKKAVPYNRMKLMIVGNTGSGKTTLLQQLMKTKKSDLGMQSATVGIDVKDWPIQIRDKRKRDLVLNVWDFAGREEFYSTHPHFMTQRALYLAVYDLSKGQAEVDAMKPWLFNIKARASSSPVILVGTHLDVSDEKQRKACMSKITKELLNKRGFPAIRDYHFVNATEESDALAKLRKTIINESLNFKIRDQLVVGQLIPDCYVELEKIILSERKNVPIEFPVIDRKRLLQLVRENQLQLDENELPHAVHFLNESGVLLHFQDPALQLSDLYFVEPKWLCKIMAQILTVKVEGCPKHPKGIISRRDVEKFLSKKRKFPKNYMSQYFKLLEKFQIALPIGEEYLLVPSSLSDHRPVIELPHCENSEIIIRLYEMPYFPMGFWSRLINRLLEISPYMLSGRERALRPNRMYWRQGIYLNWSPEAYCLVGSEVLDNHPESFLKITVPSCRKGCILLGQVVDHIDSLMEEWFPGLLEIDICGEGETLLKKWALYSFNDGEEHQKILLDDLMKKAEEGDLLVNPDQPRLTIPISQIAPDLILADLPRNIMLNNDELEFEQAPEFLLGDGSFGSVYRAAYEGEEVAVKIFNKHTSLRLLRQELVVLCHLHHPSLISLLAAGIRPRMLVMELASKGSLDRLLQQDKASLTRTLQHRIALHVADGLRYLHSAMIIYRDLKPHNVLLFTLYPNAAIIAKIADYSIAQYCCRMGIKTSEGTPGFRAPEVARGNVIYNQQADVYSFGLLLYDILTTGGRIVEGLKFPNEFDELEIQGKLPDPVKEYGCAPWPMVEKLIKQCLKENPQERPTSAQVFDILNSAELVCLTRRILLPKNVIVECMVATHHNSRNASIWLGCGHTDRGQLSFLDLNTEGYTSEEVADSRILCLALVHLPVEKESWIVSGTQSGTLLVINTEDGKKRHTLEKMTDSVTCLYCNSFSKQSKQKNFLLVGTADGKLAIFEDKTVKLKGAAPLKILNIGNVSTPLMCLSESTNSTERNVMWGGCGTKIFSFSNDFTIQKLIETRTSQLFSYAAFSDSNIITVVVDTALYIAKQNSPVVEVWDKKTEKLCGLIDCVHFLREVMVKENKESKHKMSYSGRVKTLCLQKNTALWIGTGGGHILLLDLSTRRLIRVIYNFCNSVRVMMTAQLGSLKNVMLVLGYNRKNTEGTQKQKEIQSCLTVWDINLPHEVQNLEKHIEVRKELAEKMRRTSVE
# assayRemarks: LRRK2 Km ATP LanthaScreen Assay
# Format: biochemical
# measurementSetup: G2019S LRRK2, 134 μM ATP (Km ATP), mean values

compound | censorSymbol | LRRK2 pIC50
N#CC1(Cn2ncc(Nc3ncc4cc(Cl)c(C5CCN(C6COC6)CC5)cc4n3)c2Cl)CC1 | = | 8.92
N#CC1CCC(N2CC[C@@H](c3cc4nc(Nc5cnn(C6CC6)c5Cl)ncc4cc3Cl)[C@H](F)C2)C1 (single isomer, unassigned) [Ex-4.111] | = | 8.55
Cc1nsc(Nc2ncc3cc(Cl)c(C4CCN(C5COC5)CC4)cc3n2)c1Cl | > | 9.20
Cc1c(Nc2ncc3cc(Cl)c(C4CCN(C[C@H](O)c5ccccc5F)CC4)cc3n2)cnn1C1CC1 | = | 8.03
Cc1cc2cnc(Nc3cnn(C45CC(C4)C5)c3C)nc2cc1[C@@H]1CCN([C@@H]2COC[C@@H]2O)C[C@H]1F (single isomer, unassigned) | = | 8.67
Cc1c(Nc2ncc3cc(Cl)c(C4CCN(C5COC5)CC4)cc3n2)cnn1CC1(C#N)CC1 | > | 9.20
Clc1cc2cnc(Nc3cnn(C4COC4)c3Cl)nc2cc1C1CCN(C2COC2)CC1 | > | 9.20
Cc1cc2cnc(Nc3cnn(C4CC4)c3Cl)nc2cc1C1CCN(C2COC2)CC1 | = | 9.01
FC(F)Cn1ncc(Nc2ncc3cc(Cl)c([C@@H]4CCN(C5COC5)C[C@H]4F)cc3n2)c1Cl (single isomer, unassigned) | = | 9.15
N#CC1CCC(N2CC[C@@H](c3cc4nc(Nc5cnn(C6CC6)c5Cl)ncc4cc3Cl)[C@H](F)C2)C1 (single isomer, unassigned) [Ex-4.110] | = | 8.73
CC1(N2CCC(c3cc4nc(Nc5cnn(C6(C)CC6)c5Cl)ncc4cc3Cl)CC2)COC1 | > | 9.20
[2H]C([2H])([2H])n1ncc(Nc2ncc3cc(Cl)c(C4CCN([C@H]5COC[C@H]5O)CC4)cc3n2)c1Cl (single isomer, unassigned) | > | 9.20
N#Cc1cc2cnc(Nc3cnn(C4CC4(F)F)c3Cl)nc2cc1[C@@H]1CCN(C2COC2)C[C@H]1F (single isomer, unassigned) [Ex-6.5] | > | 9.20
Cc1c(Nc2ncc3cc(Cl)c(C4CCN(CC(C)(C)O)CC4)cc3n2)cnn1C1CC1 | = | 8.57
Cc1cc(Nc2ncc3cc(Cl)c(C4CCN([C@H]5COC[C@H]5O)CC4)cc3n2)sn1 (single isomer, unassigned) | > | 9.20
FC1(c2cc3nc(Nc4cnn(C5CC5)c4Cl)ncc3cc2Cl)CCN(C2COC2)CC1 | = | 8.23
Cc1cc2cnc(Nc3cnn(C4CC4)c3C)nc2cc1[C@H]1CCN(C2COC2)C[C@@H]1F (single isomer, unassigned) | = | 8.75
C[C@]1(N2CC[C@@H](c3cc4nc(Nc5cnn(C6CC6)c5Cl)ncc4cc3Cl)[C@H](F)C2)COC[C@H]1O (single isomer, unassigned) | > | 9.20
C[C@@]1(N2CC[C@@H](c3cc4nc(Nc5cnn(C6CC6)c5Cl)ncc4cc3Cl)[C@H](F)C2)COC[C@@H]1O (single isomer, unassigned) | > | 9.20
Cc1cc2cnc(Nc3cnn(C4CC4(F)F)c3C)nc2cc1[C@@H]1CCN([C@H]2COC[C@H]2O)C[C@H]1F (single isomer, unassigned) | > | 9.20
Cc1cc(Nc2ncc3cc(Cl)c(C4CCN(C5COC5)CC4)cc3n2)sn1 | > | 9.20
CC1CC(c2cc3nc(Nc4cnn(C5CC5)c4Cl)ncc3cc2Cl)CCN1C1COC1 (single isomer, unassigned) [Ex-4.106] | > | 9.20
O[C@H]1COC[C@H]1N1CC[C@H](c2cc3nc(Nc4cnn(C56CC(C5)C6)c4)ncc3cc2Cl)[C@@H](F)C1 (single isomer, unassigned) | > | 9.20
Cc1c(Nc2ncc3cc(Cl)c(C4CCN(C[C@]5(O)C[C@H](C#N)C5)CC4)cc3n2)cnn1C1CC1 | = | 8.95
F[C@H]1CN(C2COC2)C[C@@H]1c1cc2nc(Nc3cnn(C4CC4)c3Cl)ncc2cc1Cl (single isomer, unassigned) | = | 7.31
Clc1cc2cnc(Nc3cnn(C4CC4)c3Cl)nc2cc1C1CC2CCC(C1)N2C1COC1 (stereo not drawn) | > | 9.20
FC(F)Cn1ncc(Nc2ncc3cc(Cl)c(C4CCNCC4)cc3n2)c1Cl | = | 8.70
